experiment: inhibition of NOD2-driven NF-kB reporter – cell-based, luminescence, uHTS, HEK293 (AID 1566); settings: HEK293 NOD2/NF-kB luciferase reporter, at 4 µM, hits give high values
In all, about 290,000 compounds went through this assay and about 1,800 (0.62%) were called active. Shown is part of a subset that was picked to be rich in actives.
readout_label: inhibition (%)
Give bare numbers, in %.

{"columns": ["molecule", "readout_label", "result"],
 "data": [
  ["c1ccc(COCCC2CO2)cc1 (centres undefined)", "inhibition", -8.4]
]}

I have 3 molecules here; please give me inhibition for each one.
1. Nc1cc(S(=O)(=O)N2CCCCC2)ccc1N1CCOCC1
2. COc1ccc(S(=O)(=O)Nc2cc(OC)c(NC(=O)c3ccco3)cc2OC)cc1
3. CCCc1nc2ccccc2c(=O)n1CCc1ccccc1

1: 9.9; 2: 19.5; 3: -5.9
